The reported measurements were obtained from BindingDB's records for patent US20260008775.

# target: 3-beta-hydroxysteroid-Delta(8),Delta(7)-isomerase (Homo sapiens, UniProt Q15125)
# Sequence (Q15125 whole entry): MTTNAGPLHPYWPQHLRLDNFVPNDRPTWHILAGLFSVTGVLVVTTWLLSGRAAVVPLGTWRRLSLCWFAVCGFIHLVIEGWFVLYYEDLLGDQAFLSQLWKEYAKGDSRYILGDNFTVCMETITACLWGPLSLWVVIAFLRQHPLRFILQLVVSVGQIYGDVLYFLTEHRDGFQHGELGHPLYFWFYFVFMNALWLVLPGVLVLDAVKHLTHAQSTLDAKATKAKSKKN
# assay_method_text: Determination of Binding Affinity to EBP-7-Dehydrocholesterol Reductase
pKi: −log10 of the molar value.
parameter: pKi

> print(dat)
                           smiles.structure                                    target  test.result
1  CC(C)n1nc(-c2cncc(C(F)(F)F)c2)cc1[C@H]1[C@@H]2C[C@@H](N3CCOCC3)C[C@@H]21  3-beta-hydroxysteroid-Delta(8),Delta(7)-isomerase (Homo sapiens, UniProt Q15125)         6.73
